Recorded values, source patent US6716987B1.

reported.metric: melting point

Study these solved cases before continuing.
> print(dat)
                               query.smiles  reported.metric   assay.result
1  COc1ccc(C(=O)Nc2c(Cl)cncc2Cl)c2cc(-c3ccncc3)oc12    melting point  289 to 290 °C
2  COc1ccc(C(=O)Nc2c(Cl)cncc2Cl)c2cc(-c3ccccn3)oc12    melting point  263 to 264 °C
3  CCOC(=O)Cc1coc2c(OC)ccc(C(=O)Cc3c(Cl)cncc3Cl)c12    melting point  105 to 115 °C
4  COC(=O)c1cccc(-c2ccc(OC)c3c2CC(C)(C)O3)c1    melting point    89 to 91 °C

QUERY: Using the record for "COc1ccc(C=Cc2c(Cl)cncc2Cl)c2c1CC1(CCCC1)O2" , report its melting point.
RESULT: 99 to 101 °C

* * *

# Test system: cAMP-specific phosphodiesterase (PDE IV)
# protocol.summary: Inhibition of the PDE IV enzyme derived from a dog trachea
# Assay type: biochemical
# test.context: test compound 10^−6 M; PDE IV from dog tracheal smooth muscle; substrate cAMP 1 μM
Reported Enzyme Inhibitory Activity (%, 10^−6 M) values follow for various compounds
Answer in %, number only, no unit symbol.

Study these solved cases before continuing.
> print(dat)
                                   compound  assay.result
1  COc1ccc(CCc2c(Cl)cncc2Cl)c2c1OC1(CCCC1)C2.CS(=O)(=O)O            86
2   COc1ccc(C(C)=Cc2ccncc2)c2c1OC1(CCCC1)C2            72
3  COc1ccc(C(Cc2ccncc2)c2ccccc2)c2cc(-c3ccncc3)oc12.Cl (racemic)            49
4  COc1ccc(/C=C/c2ccncc2)c2c1OC1(CCCC1)C2.Cl            73
5  COc1ccc(C(=O)Cc2ccncc2)c2cc(CC(C)C)oc12.Cl            80
6  CCOC(=O)CC1COc2c(OC)ccc(C(=O)Nc3ccccc3)c21 (racemic)            37
7  COc1ccc(C(=O)Cc2ccncc2)c2c1OC1(CCCC1)CC2.Cl            70
8  COc1ccc(C(=O)Nc2ccncc2)c2cc(-c3ccccn3)oc12.Cl.Cl            58

QUERY: Find the measured Enzyme Inhibitory Activity (%, 10^−6 M): item "CCOC(=O)Cc1coc2c(OC)ccc(C(=O)Nc3c(Cl)cncc3Cl)c12" , target or system cAMP-specific phosphodiesterase (PDE IV).
RESULT: 62

QUERY: Find the measured Enzyme Inhibitory Activity (%, 10^−6 M): item "COc1ccc(C(=O)Nc2c(Cl)cncc2Cl)c2c(-c3ccccc3)coc12" , target or system cAMP-specific phosphodiesterase (PDE IV).
RESULT: 73

QUERY: Find the measured Enzyme Inhibitory Activity (%, 10^−6 M): item "CCOC(=O)C(C#N)=Cc1ccc(OC)c2c1CC(C)(C)O2" , target or system cAMP-specific phosphodiesterase (PDE IV).
RESULT: 33

QUERY: Find the measured Enzyme Inhibitory Activity (%, 10^−6 M): item COc1ccc(C(=O)Nc2c(Cl)cncc2Cl)c2c1OCC2CC(=O)NCc1cccnc1 (racemic) , target or system cAMP-specific phosphodiesterase (PDE IV).
RESULT: 81

QUERY: Find the measured Enzyme Inhibitory Activity (%, 10^−6 M): item COc1ccc(C(=O)Nc2c(Cl)cncc2Cl)c2c1OCC2C (racemic) , target or system cAMP-specific phosphodiesterase (PDE IV).
RESULT: 77

QUERY: Find the measured Enzyme Inhibitory Activity (%, 10^−6 M): item "COc1ccc(C(=Cc2ccncc2)c2ccccc2)c2c1OC1(CCCC1)O2" , target or system cAMP-specific phosphodiesterase (PDE IV).
RESULT: 54
